molecular target: ActRIIA and ActRIIB (on TGFB/SMAD SBE Reporter HEK293 cells) (human); assay: cell-based or functional assay
Sequence (chain, as listed by the source, chain 1 of 2): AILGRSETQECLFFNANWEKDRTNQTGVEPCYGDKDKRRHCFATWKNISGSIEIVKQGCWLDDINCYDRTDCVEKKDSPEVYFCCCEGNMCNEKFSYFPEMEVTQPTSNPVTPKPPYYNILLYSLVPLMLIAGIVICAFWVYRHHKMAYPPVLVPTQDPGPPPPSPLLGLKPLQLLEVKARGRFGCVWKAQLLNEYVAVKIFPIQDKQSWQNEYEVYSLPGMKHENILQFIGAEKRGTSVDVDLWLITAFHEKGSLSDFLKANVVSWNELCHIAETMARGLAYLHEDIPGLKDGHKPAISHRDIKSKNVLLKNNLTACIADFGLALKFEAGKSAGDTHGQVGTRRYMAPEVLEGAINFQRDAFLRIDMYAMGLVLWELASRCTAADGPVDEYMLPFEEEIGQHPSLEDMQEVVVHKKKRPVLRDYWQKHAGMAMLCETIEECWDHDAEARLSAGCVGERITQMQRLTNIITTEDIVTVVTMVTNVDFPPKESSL
Sequence (chain, as listed by the source, chain 2 of 2): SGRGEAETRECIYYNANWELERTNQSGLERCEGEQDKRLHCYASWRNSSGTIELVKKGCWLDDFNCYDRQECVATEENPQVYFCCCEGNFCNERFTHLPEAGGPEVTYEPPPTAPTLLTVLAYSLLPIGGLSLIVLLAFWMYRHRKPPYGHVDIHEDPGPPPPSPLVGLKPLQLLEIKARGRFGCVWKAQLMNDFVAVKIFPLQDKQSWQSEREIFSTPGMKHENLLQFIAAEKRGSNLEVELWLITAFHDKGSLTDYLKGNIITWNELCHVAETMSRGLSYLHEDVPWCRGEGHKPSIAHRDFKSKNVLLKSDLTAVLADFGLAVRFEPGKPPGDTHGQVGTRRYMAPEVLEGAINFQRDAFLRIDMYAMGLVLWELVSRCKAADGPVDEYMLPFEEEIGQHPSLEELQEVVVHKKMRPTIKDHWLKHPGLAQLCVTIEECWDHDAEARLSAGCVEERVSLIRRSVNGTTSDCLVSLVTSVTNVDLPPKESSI
Listed here are binders together with their documented IC90, Activin SMAD RGA.
Field format: number, assumed nM, no unit text.

Look over these answered cases.
Antibody Seela (antibody, V domains shown) VH: QVQLVQSGAEVKKPGSSVKVSCKASGYKFTSSYINWVRQAPGQGLEWMGTINAVSGSTSYAQKFQGRVTITADTSTSTAYMELSSLRSEDTAVYYCARGGWFDYWGQGTLVTVSS VL: QSALTQPRSVSGSPGQSVTISCTGTSSDVGSKNYVNWYQQHPGKAPKHMIYGVSKRESGVPDRFSGSKSGNTASLTISGLQAEDEADYYCGTFAGGKYYGVFGGGTKLTVL :: 4.74
Antibody Zibebe (antibody, V domains shown) VH: QVQLVQSGAEVKKPGSSVKVSCKASGYKFTSSYINWVRQAPGQGLEWMGTINAVSGSTSYAQKFQGRVTITADESTSTAYMELSSLRSEDTAVYYCARGGWFDYWGQGTLVTVSS VL: QSALTQPRSVSGSPGQSVTISCTGTSSDVGSYNYVNWYQQHPGKAPKLMIYGVSKRESGVPDRFSGSKSGNTASLTISGLQAEDEADYYCGTFAGGKYYGVFGGGTKLTVL :: 7.83

The binder listed as Antibody Wiebela (antibody, V domains shown) VH: QVQLVQSGAEVKKPGSSVKVSCKASGYKFTSSYINWVRQAPGQGLEWMGTINAVSGSTSYAQKFQGRVTITADTSTSTAYMELSSLRSEDTAVYYCARGGWFDYWGQGTLVTVSS VL: QSALTQPRSVSGSPGQSVTISCTGTSSDVGSKNYVNWYQQHPGKAPKLMIYGVSKRESGVPDRFSGSKSGNTASLTISGLQAEDEADYYCGTFAGGKYYGVFGGGTKLTVL shows IC90, Activin SMAD RGA equal to 3.96

Values were extracted from patent US20250243286A1.
